Test system: K562 CRISPRi cells
Assay: Constant region variant library pooled growth screen, K562
Format: cell-based, human
Details: sgRNA constant region variants; activity relative to the original, un-modified constant region cr995
Readout Label: Mean relative activity
# respond with the number and nothing more

Exam item: For the molecule cr684 (nucleic acid, listed as DNA, chemistry not fully specified) guide: GTTTAAGAGCTAAGCTGGAAACAGCATAGCAAGTTTAAATAAGGCTAGTCCGTTATCAACTTGAAAAAGTGGCACTAAGTTAGTGCT , give its measured Mean relative activity value.
Marked response: 0.7672
